B1: glmS ribozyme (parent)
chain: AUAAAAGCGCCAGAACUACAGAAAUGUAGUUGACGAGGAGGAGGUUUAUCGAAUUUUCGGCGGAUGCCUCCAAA

Variants of: B1
Test: kcat; higher = faster cleavage; RNA array
Details: with glucosamine-6-phosphate
Fewer inactive variants are shown than the library holds.
Property measured: log10 kcat (log10 of the value in s⁻¹)
Log scale reminder: kcat in s⁻¹, then log10 taken.

Here are 2 variants together with their reported answers.
- Alteration: "A15U C50G A53U U55A"
  log10 kcat: -4.47
- Alteration: "C16G C71U"
  log10 kcat: -2.60

Lookup: Could you tell me which log10 kcat is on file for A6G C71U ?
Found: -4.22

Lookup: Could you tell me which log10 kcat is on file for A14C U46G ?
Found: -3.08

Lookup: Could you tell me which log10 kcat is on file for C11U A15C G51U C70A ?
Found: -4.16

Lookup: Could you tell me which log10 kcat is on file for G29A G40U ?
Found: -3.61
